Cited source: patent US12509460B2

# System: MDR1-MDCK cell monolayers
# Assay Info: Blood-brain-barrier (BBB) penetration potential via MDCK-MDR1 permeability assay
# Experimental Parameters: B-A direction
Everything with MDCK-MDR1: % Recov B-A lower than 80% is No; everything else, including exactly 80%, is Yes.

• CN(c1ccc(-c2cc3ncccc3cc2O)nn1)[C@H]1C[C@@H]2CC(F)(F)[C@H](C1)N2 [Compound 46B] = Yes

Quick check: does CN(c1ccc(-c2ccc(-c3cnn(C(F)F)c3)cc2O)nn1)[C@@H]1C[C@H]2CC[C@H](N2)[C@@H]1F [Compound 20A] have MDCK-MDR1: % Recov B-A greater than or equal to 80%?
No

Quick check: does CN(c1ccc(-c2cc3c(=O)n(C)cnc3cc2O)nn1)[C@@H]1C[C@H]2CC[C@H](N2)[C@@H]1F [Compound 85A] have MDCK-MDR1: % Recov B-A greater than or equal to 80%?
Yes

Quick check: does CN(c1ccc(-c2ccc(C#N)cc2O)nn1)[C@H]1C[C@@H]2CC[C@@H](N2)[C@H]1F [Compound 38B] have MDCK-MDR1: % Recov B-A greater than or equal to 80%?
Yes

Quick check: does CN(c1ccc(-c2ccc(-c3cnn(C(F)F)c3)cc2O)nn1)[C@H]1C[C@@H]2CC[C@@H](N2)[C@H]1F [Compound 20B] have MDCK-MDR1: % Recov B-A greater than or equal to 80%?
No

Quick check: does CN(c1ccc(-c2cc3nccnc3cc2O)nn1)[C@H]1C[C@@H]2CC[C@@H](N2)[C@H]1F [Compound 88B] have MDCK-MDR1: % Recov B-A greater than or equal to 80%?
Yes

Quick check: does CN(c1ccc(-c2ccc(-c3cnn(C)c3)cc2O)nn1)C1CC2COCC(N2)C1F (single isomer, unassigned) [Compound 80A] have MDCK-MDR1: % Recov B-A greater than or equal to 80%?
Yes

Quick check: does CN(c1ccc(-c2ccc(-n3cnc(Cl)c3)cc2O)nn1)C1CC2CC(F)(F)C(C1)N2 (single isomer, unassigned) [Compound 37A] have MDCK-MDR1: % Recov B-A greater than or equal to 80%?
No

Quick check: does Cc1cc(=O)c2cc(-c3ccc(N(C)[C@H]4C[C@@H]5CC[C@@H](N5)[C@H]4F)nn3)c(O)cc2o1 [Compound 50B] have MDCK-MDR1: % Recov B-A greater than or equal to 80%?
Yes
